procedure.summary: Novel Modifiers of Survival Motor Neuron (SMN) Protein: Gene Identification via Genome-wide siRNA Screen;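 further: luminescence tracks full-length SMN protein made from the SMN2 reporter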
recorded.conditions: HEK293T SMN2-luciferase reporter, siRNA knockdown, 72 h; actives lie on both sides
In all, about 31,000 sequences went through this assay and about 1,400 (4.5%) were called active. The full list was thinned out, with actives kept by preference.
Quick rule: median seed-adjusted z-score of at least -0.1 means 1 (yes), below that means 0 (no).

macromolecule.sequence	cat
GAAAGGCUUUGACCAAUCUTT against ZNF319	1 (yes)

-- ask Record CAAUCGUCCAAUGAUCUUATT against PCDHB1 ; criterion: median seed-adjusted z-score no lower than -0.1. Met?
-- reply 1 (yes)

-- ask Record CCUUCCCUCUACACCAUCATT against COPZ2 ; criterion: median seed-adjusted z-score no lower than -0.1. Met?
-- reply 0 (no)

-- ask Record CCAGUUUCAUUAUACAUCATT against ZNF211 ; criterion: median seed-adjusted z-score no lower than -0.1. Met?
-- reply 0 (no)

-- ask Record CAUUUUCAGUCUUUAGAAATT against RNF34 ; criterion: median seed-adjusted z-score no lower than -0.1. Met?
-- reply 1 (yes)

* * *

procedure.summary: Novel Modifiers of Survival Motor Neuron (SMN) Protein: Gene Identification via Genome-wide siRNA Screen;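 further: luminescence tracks full-length SMN protein made from the SMN2 reporter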
recorded.conditions: HEK293T SMN2-luciferase reporter, siRNA knockdown, 72 h; actives lie on both sides
In all, about 31,000 sequences went through this assay and about 1,400 (4.5%) were called active. Only a selection was taken, and actives are over-represented in it overall.
result.type: median seed-adjusted z-score
Numbers only.

The examples below pair each entry with its known result.
macromolecule.sequence	median seed-adjusted z-score
CCUUUACUUUCUAUAGAAATT against ZNF573	-0.169
GGACUUAAGCGACAACGCATT against RANGAP1	-0.0379
GAAGCAGUGCCAAUGAACATT against TCEB2	1.28
GGUUCAUGACAGACAAGAATT against SHMT1	0.179
GUACAGCUCUUAUCGUUCATT against PPRC1	0

Provide the reported median seed-adjusted z-score of each entry below, same order.
1. GAUCGCUACUUACAGGAUATT against CYP51A1
2. GCACUUGUAAGAACUGGUATT against POSTN
3. GGAUUUCGAUUGCAUCAUUTT against LGI1

-- reply
1. -0.242
2. -0.45
3. -0.19

* * *

procedure.summary: Novel Modifiers of Survival Motor Neuron (SMN) Protein: Gene Identification via Genome-wide siRNA Screen;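 further: luminescence tracks full-length SMN protein made from the SMN2 reporter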
recorded.conditions: HEK293T SMN2-luciferase reporter, siRNA knockdown, 72 h; actives lie on both sides
The campaign covered roughly 31,000 sequences. About 1,400 (4.5%) were called active. This excerpt belongs to a sample that is enriched for actives.
Quick rule: median seed-adjusted z-score of at least 0 means MET, below that means NOT MET.

Below, 8 sequences whose answers are already recorded.
macromolecule.sequence	cat
CAACGACAGCAGUCCCAUUTT against EGR1	MET
CAUUAGCAGUUGUCCCGUUTT against P2RY10	NOT MET
CCAUCAGUACAUAUCCGAATT against ABCA8	NOT MET
CCACGAUGUGGGAUAAUAATT against GALNAC4S-6ST	MET
GUCUGUCAAUGUACCUUCUTT against 3-Mar	MET
GCUGUUACCUCGACGAGUATT against TSC2	MET
CUUCAUAUCUCUUUACGUATT against PIGW	NOT MET
CAGCAUACUUUAUCGCCUUTT against DICER1	MET

-- ask Record CAGUAGUGUUGGUAGACCATT against HADH ; criterion: median seed-adjusted z-score no lower than 0. Met?
-- reply MET

-- ask Record GGGUUUUUGCGCUUCAAAATT against GALNAC4S-6ST ; criterion: median seed-adjusted z-score no lower than 0. Met?
-- reply MET

-- ask Record GGGAUUGAGUUAAAACUAUTT against SOX7 ; criterion: median seed-adjusted z-score no lower than 0. Met?
-- reply NOT MET

-- ask Record GGCUACAAGUAGAGAGUUUTT against ESPL1 ; criterion: median seed-adjusted z-score no lower than 0. Met?
-- reply MET

-- ask Record GAAUCAAGAAUUAAAGACATT against PIPOX ; criterion: median seed-adjusted z-score no lower than 0. Met?
-- reply MET

-- ask Record UGGUCAACUAGAAUACAUATT against RGPD5 ; criterion: median seed-adjusted z-score no lower than 0. Met?
-- reply NOT MET

-- ask Record GGAUGGGAACAACCCUGCATT against HMGN4 ; criterion: median seed-adjusted z-score no lower than 0. Met?
-- reply NOT MET

-- ask Record CGAGUUUGCUUGGUCAGAATT against SF3B1 ; criterion: median seed-adjusted z-score no lower than 0. Met?
-- reply NOT MET

-- ask Record GUCCUUAUCUUUGCAAAUATT against ARL5B ; criterion: median seed-adjusted z-score no lower than 0. Met?
-- reply NOT MET

-- ask Record GGGAUAAAUUUGACGUGGATT against SPAG1 ; criterion: median seed-adjusted z-score no lower than 0. Met?
-- reply MET

-- ask Record GAGUGACUGUAGAGCCUCATT against GCS1 ; criterion: median seed-adjusted z-score no lower than 0. Met?
-- reply MET

-- ask Record GGCCCAAGCUUCAACAGCATT against DNASE2 ; criterion: median seed-adjusted z-score no lower than 0. Met?
-- reply NOT MET

-- ask Record GGGCAUCGCUAAACCCAAATT against LIF ; criterion: median seed-adjusted z-score no lower than 0. Met?
-- reply MET
